Assay: Effect of food on plasma pharmacokinetics after single oral dose of SF2a/b (Example 2)
Format: in vivo, human
Conditions: both sexes, human, plasma, oral, 200 mg, 200 mg SF2b, fed, standardized breakfast (Tables 5E, 5G); read-out: Cmax, Geometric LS Means Treatment G
measured-parameter: Cmax (ng/mL)
Return type: number; implicit unit ng/mL.

Task: Item COc1cc(NC(C(=O)c2c[nH]c3ccc(OC(F)(F)F)cc23)c2ccc(Cl)cc2OC)cc(S(C)(=O)=O)c1 (stereo not shown) has what recorded Cmax?
Result: 961

====

Experiment: Effect of food on plasma pharmacokinetics after single oral dose of SF2a/b (Example 2)
Type: in vivo, human
Conditions: both sexes, human, plasma, oral, 200 mg, Treatment G: single 200 mg (SF2b), fed, standardized breakfast; read-out: Cmax, Geo. Mean
measured-parameter: Cmax

Task: Any idea what Cmax was measured for COc1cc(NC(C(=O)c2c[nH]c3ccc(OC(F)(F)F)cc23)c2ccc(Cl)cc2OC)cc(S(C)(=O)=O)c1 (stereo not shown) ?
Result: 961 ng/mL

====

Assay: Plasma pharmacokinetics with loading dose and weekly or twice weekly maintenance dosing, fed (Example 5)
Assay type: in vivo, human
Settings: human, plasma, oral, 150 mg, Panel IV (150 mg BID Days 1-2, then 150 mg Q3D/Q4D; SF2a/b, fed), Day 24; read-out: Mean Cmax (SD)
measured-parameter: Cmax (ng/mL)
A number alone suffices; assume ng/mL.

Task: Recorded Cmax of COc1cc(NC(C(=O)c2c[nH]c3ccc(OC(F)(F)F)cc23)c2ccc(Cl)cc2OC)cc(S(C)(=O)=O)c1 (stereo not shown) , please.
Result: 1260

====

Experiment: Effect of food on plasma pharmacokinetics after single oral dose of SF2a/b (Example 2)
Format: in vivo, human
Conditions: both sexes, human, plasma, oral, 200 mg, 200 mg SF2b, standardized breakfast; linear mixed effects model (Table 5B); read-out: Cmax, Geometric Mean Treatment G
measured-parameter: Cmax
Show the value, then the unit it is measured in.

Task: Reported Cmax for COc1cc(NC(C(=O)c2c[nH]c3ccc(OC(F)(F)F)cc23)c2ccc(Cl)cc2OC)cc(S(C)(=O)=O)c1 (stereo not shown) [Compound (a)] : what is it?
Result: 984 ng/mL

====

Assay: Effect of food on plasma pharmacokinetics after single oral dose of SF2a/b (Example 2)
Format: in vivo, human
Settings: both sexes, human, plasma, oral, 50 mg, Treatment I: single 50 mg (SF2a), fed, standardized breakfast; read-out: AUC∞, Mean
measured-parameter: AUC(0-inf) (ng·h/mL)
The reply should contain only the number, in ng·h/mL.

Task: If you can, please state the reported AUC(0-inf) value of COc1cc(NC(C(=O)c2c[nH]c3ccc(OC(F)(F)F)cc23)c2ccc(Cl)cc2OC)cc(S(C)(=O)=O)c1 (stereo not shown) .
Result: 24600

====

Test: Plasma pharmacokinetics with loading dose and weekly or twice weekly maintenance dosing, fed (Example 5)
Format: in vivo, human
Conditions: human, plasma, oral, 900 mg, Panel I (450 mg BID Days 1-2, then 900 mg Q7D; SF2a/b, fed), Day 3; read-out: Mean AUC72 h (SD)
measured-parameter: AUC(0-t)
Quick note: number first, unit second.

Task: Recorded AUC(0-t) for COc1cc(NC(C(=O)c2c[nH]c3ccc(OC(F)(F)F)cc23)c2ccc(Cl)cc2OC)cc(S(C)(=O)=O)c1 (stereo not shown) , please?
Result: 318 µg·h/mL
